- assay_protocol: Inhibition of Mitogen-activated protein kinase
- Set-up: species or system Xenopus laevis
measured_metric: IC50 (µM)

P: Cn1cnc2c(NCc3ccccc3)nc(NCCO)nc21 [OLOMOUCINE]
Q: COC(=O)[C@@]1(Cc2ccc(O)c(CC=C(C)C)c2)OC(=O)C(O)=C1c1ccc(O)cc1 [BUTYROLACTONE I]
R: CN1CC[C@H](c2c(O)cc(O)c3c(=O)cc(-c4ccccc4Cl)oc23)[C@H](O)C1 [ALVOCIDIB]
**Q:** Hey, can you sort those compounds up there by IC50, smallest first? Returns: the labels listed in the requested order.
**A:** R, P, Q
